test system: 5′-AAAAAGCAAAAA-3′; assay type: binding; details: DNA sequence 5′-AAAAAGCAAAAA-3′; pH 7.0, 22° C.
measured_quantity: Equilibrium Association Constant (Ka) (M⁻¹)
Answer format: numeric, M⁻¹ implied, no suffix.

// query Equilibrium Association Constant (Ka) value for entry CCN(CC)CCCNC(=O)CCNC(=O)c1cc(NC(=O)c2cc(NC(=O)CCNC(=O)c3cc(NC(=O)c4cc(NC(=O)c5cc(Br)c(Br)s5)cn4C)cn3C)cn2C)cn1C [Id-6]
1e+10

// query Equilibrium Association Constant (Ka) value for entry CC(C)N(CCNC(=O)CCNC(=O)c1cc(NC(=O)c2cc(NC(=O)CCNC(=O)c3cc(NC(=O)c4cc(NC(=O)c5ccc(Br)s5)cn4C)cn3C)cn2C)cn1C)C(C)C [Id-19]
5e+09

// query Equilibrium Association Constant (Ka) value for entry Cn1cc(NC(=O)c2cc(NC(=O)CCNC(=O)c3cc(NC(=O)c4cc(NC(=O)c5cc(Br)c(Br)s5)cn4C)cn3C)cn2C)cc1C(=O)NCCC(=O)NCCN1CCCCC1 [Id-5]
2e+09

// query Equilibrium Association Constant (Ka) value for entry Cn1cc(NC(=O)c2cc(NC(=O)CCNC(=O)c3cc(NC(=O)c4cc(NC(=O)c5ccc(Br)s5)cn4C)cn3C)cn2C)cc1C(=O)NCCC(=O)NCCCCCCN [Id-21]
5e+10

// query Equilibrium Association Constant (Ka) value for entry Cn1cc(NC(=O)c2cc(NC(=O)CCNC(=O)c3cc(NC(=O)c4cc(NC(=O)c5cc(Br)c(Br)s5)cn4C)cn3C)cn2C)cc1C(=O)NCCC(=O)NCC(C)(C)CN [Id-4]
5e+09

// query Equilibrium Association Constant (Ka) value for entry Cn1cc(NC(=O)c2cc(NC(=O)CCNC(=O)c3cc(NC(=O)c4cc(NC(=O)c5cc(Br)c(Br)s5)cn4C)cn3C)cn2C)cc1C(=O)NCCC(=O)NCCCCCCN [Id-2]
5e+08

// query Equilibrium Association Constant (Ka) value for entry CN(C)CC(C)(C)CNC(=O)CCNC(=O)c1cc(NC(=O)c2cc(NC(=O)CCNC(=O)c3cc(NC(=O)c4cc(NC(=O)c5cc(Br)c(Br)s5)cn4C)cn3C)cn2C)cn1C [Id-7]
5e+08

// query Equilibrium Association Constant (Ka) value for entry CN1CCCN(C(=O)CCNC(=O)c2cc(NC(=O)c3cc(NC(=O)CCNC(=O)c4cc(NC(=O)c5cc(NC(=O)c6ccc(Br)s6)cn5C)cn4C)cn3C)cn2C)CC1 [Id-16]
5e+10

// query Equilibrium Association Constant (Ka) value for entry Cn1cc(NC(=O)c2cc(NC(=O)CCNC(=O)c3cc(NC(=O)c4cc(NC(=O)c5ccc(Br)s5)cn4C)cn3C)cn2C)cc1C(=O)NCCC(=O)NCCCNC1CCCCC1 [Id-15]
5e+10

* * *

system: 5′-AAAAAGCAAAAA-3′; assay type: binding; details: DNA sequence 5′-AAAAAGCAAAAA-3′; pH 7.0, 22° C.
Could you please report measured Equilibrium Association Constant (Ka) for the items listed next?
Answer format: numeric, M⁻¹ implied, no suffix.

// query Equilibrium Association Constant (Ka) value for entry CC(C)N(CCNC(=O)CCNC(=O)c1cc(NC(=O)c2cc(NC(=O)CCNC(=O)c3cc(NC(=O)c4cc(NC(=O)c5cc(Br)c(Br)s5)cn4C)cn3C)cn2C)cn1C)C(C)C
5e+08

// query Equilibrium Association Constant (Ka) value for entry CCN(CC)CCNC(=O)CCNC(=O)c1cc(NC(=O)c2cc(NC(=O)CCNC(=O)c3cc(NC(=O)c4cc(NC(=O)c5ccc(Br)s5)cn4C)cn3C)cn2C)cn1C
2e+08

src = patent US20060287247A1
